Source listed as PubChem BioAssay.

experiment: activators of macrophage pro-inflammatory response, cell-based, murine, luminescence (AID 652131); conditions: murine macrophage pro-inflammatory reporter, stronger effect = higher value
Decision: z-score compared against -0.1; not below it gives met, below it gives not met.

Recorded results for 8 compounds are shown here.
• C[C@@H](Oc1cc(-n2cnc3ccc(OC4CCN(C)CC4)cc32)sc1C(N)=O)c1ccccc1Cl = not met
• COc1ccc2cc(-c3c(-c4ccncc4)nc(-c4ccc(S(C)=O)cc4)n3C)ccc2c1 (configuration not stated) = met
• CS(=O)(=O)CCNCc1ccc(-c2ccc3ncnc(Nc4ccc(OCc5ccccc5)c(Br)c4)c3c2)o1 = met
• CCn1c(-c2nonc2N)nc2cnc(Oc3cccc(NC(=O)c4ccc(N(C)C)cc4)c3)cc21 = met
• O=C(Nc1n[nH]c2nc(-c3ccco3)c(Br)cc12)C1CC1 = met
• Fc1ccc(-c2ncn(CCCN3CCOCC3)c2-c2ccncc2)cc1 = met
• CCn1c(-c2nonc2N)nc2ccc(F)cc21 = not met
• COc1cccc(-n2cnc3c(N/N=C/c4ccncc4)ncnc32)c1 = met

Given NS(=O)(=O)c1ccc(N=Nc2c(O)[nH]c3ccc(Cl)cc23)cc1 , state whether its z-score is at least -0.1.
met

Try this compound too: COc1cc(/C=N/Nc2ncnc3[nH]ncc23)ccc1O
not met

Now the compound CN(C)CCOc1ccc(-c2cc(-c3ccc4c(c3)CC/C4=N/O)c(-c3ccncc3)o2)cc1
not met

Item: O=S(=O)(CCOCc1ccc(-c2ccc3ncnc(Nc4ccc(OCc5cccc(F)c5)c(Cl)c4)c3c2)o1)c1ccccc1
not met

Thanks! And O=C(O[C@H]1CN[C@H](C#Cc2cc3ncnc(Nc4ccc5c(ccn5Cc5cc(F)ccc5F)c4)c3s2)C1)N1CCOCC1 ?
met

Okay, and COc1cc2ncn(-c3cc(OCc4ccccc4C(F)(F)F)c(C(C)=O)s3)c2cc1OC ?
not met

For CN(c1ccc(NC(=O)Nc2ccc(OC(F)(F)F)cc2)cc1)c1ccnc(Nc2cccc(S(N)(=O)=O)c2)n1 then?
not met

Now consider COc1cc2ncn(-c3cc(OCc4ccccc4C(F)(F)F)c(C(=O)N(C)C)s3)c2cc1OC and answer again.
met

Then NS(=O)(=O)c1ccc(-c2ccc3c(NC(=O)C4CC4)n[nH]c3c2)cc1 ?
met

----------
assay: modulation of C. elegans fzo-1 (AID 1259413);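 further: fzo-1 mutant C. elegans worms in liquid wells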; details: C. elegans fzo-1 modulator screen, mean read-out; stronger effect = higher value
Measured mean signal, listed per entry for reference.
Please give the numeric answer without any surrounding text.

- C/C=C/C(=O)N(CC)c1ccccc1C: 254
- CC(C)(C)NCC(O)COc1cccc2c1C[C@H](O)[C@H](O)C2 (stereo not given in full): 269
- Cc1c(OCC(F)(F)F)ccnc1CS(=O)c1nc2ccccc2[nH]1 (stereo not given): 250
- C[C@H](CCC(=O)O)[C@H]1CC[C@H]2[C@@H]3C(=O)C[C@@H]4CC(=O)CC[C@]4(C)[C@H]3CC(=O)[C@]12C: 247
- O=C1C(CCS(=O)c2ccccc2)C(=O)N(c2ccccc2)N1c1ccccc1 (stereo not given): 224

So what does the record say about mean signal for O=S(=O)(O)CCS ?
248

Same thing, different compound: Cc1cccc(Nc2ccncc2S(=O)(=O)NC(=O)NC(C)C)c1
241

Follow-up item: COC(=O)Nc1nc2ccc(C(=O)c3ccccc3)cc2[nH]1
274

----------
test: HCT116 colon cancer cell growth inhibition, primary screen, CellTiter-Glo luminescence, NPC library (AID 1117342); conditions: at 20 µM (top of the series)
parameterMeasured: inhibition of viability (%)
Numeric only. Scale: %

- O=S(=O)(O)CC(S)CS (centres undefined): 4.3
- O=C(Nc1ncc([N+](=O)[O-])s1)c1cccs1: 41.2
- Cc1cnc(NS(=O)(=O)c2ccc(N)cc2)nc1: -6.6
- C[C@]12C=CC(=O)C=C1CC[C@@H]1[C@@H]2[C@@H](O)C[C@@]2(C)[C@H]1CC[C@]2(O)C(=O)CO: -3.5

I have this compound here, O=C(O)Cc1csc(-c2ccc(Cl)cc2)n1 , and I need its recorded inhibition of viability.
-9.9

Also, O=C(O)c1cccnc1 please.
-15.8

Also need CC(=O)SCC(CC(=O)c1ccc(C)cc1)C(=O)O (centres undefined) , thanks.
-12.2

Try the compound O=C(c1ccccc1)C(O)c1ccccc1 (centres undefined)
2.8

Field entry: Cc1cc(O)c(Cl)c(C)c1Cl
-6.7

----------
assay: decreased DLD-1 cellular survival, CellTiter-Glo luminescent readout, NPC compound collection, primary HTS (AID 1117346); details: DLD-1 viability, CellTiter-Glo luminescence; at 20 µM (top of the series)
The source made the active and inactive calls.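 The calls were made as follows: active = compounds that lower survival of DLD-1 colon cancer cells in the luminescence readout, no cutoff given; inactive = the rest.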
Can you answer with just one of these options? active, inactive

Example entries and their recorded answers appear below.
• CN(C)CCc1c[nH]c2ccc(C[C@H]3COC(=O)N3)cc12 = inactive
• COc1ccc2cc(C=O)ccc2c1 = inactive
• COc1ccc2c(c1)CCCC2=O = inactive

Name the outcome recorded for COc1cc(OC)nc(O[C@H](C(=O)O)C(OC)(c2ccccc2)c2ccccc2)n1 in the assay.
inactive

// same read-out, input: CN(C)CCCN1c2ccccc2Sc2ccc(Cl)cc21
active

Continue with CNC(=O)CN(CCN(CCN(CC(=O)[O-])CC(=O)NC)CC(=O)[O-])CC(=O)[O-].O.[Gd+3]
inactive

Try the compound COc1ccccc1OC(=O)Oc1ccccc1OC
inactive

Please give the result for CN(C)CCN1CCN(c2cccc(Cl)c2)C1=O too.
inactive

Record: CCOC(=O)C(=O)CCc1ccccc1
inactive

Try the compound Nc1ccc(C(=O)N2CC3CC(CN(Cc4ccccc4)C3)C2)cc1
inactive

Again, but for CC1(C)S[C@@H]2[C@H](NC(=O)Cc3ccccc3)C(=O)N2[C@H]1C(=O)O (tested in a mixture with another compound)
inactive

----------
molecular target: Cellular tumor antigen p53 (Homo sapiens); experiment: kinase inhibitors altering GFP-p53 stability in HPV16-positive cells, imaging, known kinase inhibitor set, EGFP/DsRed ratio (AID 1053116); conditions: stronger effect = higher value; measured here: GFP-p53 positive objects count;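 further: cells exposed to compounds for 24 h at 37 °C before reading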
Short version: EGFP object count at least 3 is yes, less is no.

Recorded results for 3 molecules are shown here.
- Cn1cc(C2=C(c3cn(CCCCCSC(=N)N)c4ccccc34)C(=O)NC2=O)c2ccccc21: yes
- COc1cccc(C2=C(c3cn(C)c4cc(C)ccc34)C(=O)NC2=O)c1: yes
- Cn1cc(C2=C(c3cccc(N)c3)C(=O)NC2=O)c2ccccc21: yes

# ---- query molecule ----
Hello, I need to know if CCCN1CCC(c2ccc(Nc3nc(Nc4cc(F)ccc4C(N)=O)c4cc[nH]c4n3)c(OC)c2)CC1 has measured EGFP object count not below 3. Thanks!
yes

----------
assay: inhibition of endothelial tube formation, primary screen, imaging, VEGF stimulated, CD31 staining, tube area, NPC library (AID 1117340); conditions: VEGF-stimulated ADSC/ECFC co-culture, at 10 µM, stronger effect = higher value
Calls of active or inactive are those of the source.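 The calls were made as follows: active = compound that reduces growth-factor-driven endothelial tube area in a mixed cell culture, no cutoff stated; inactive = the rest.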
parameterMeasured: tube area decrease

Solved cases below.
* CCC(=O)Nc1ccc(O)cc1 | 16% (inactive)
* O=C(CS)Nc1ccccc1 | 4.3% (inactive)

Record request: tube area decrease value, item CC(C)OP(=O)(CP(=O)(OC(C)C)OC(C)C)OC(C)C
11.4% (inactive)

----------
experiment: inhibitors of mitochondrial cytochrome c release, biochemical, purified mitochondria (AID 1603); conditions: stronger effect = lower value;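 further: mouse liver mitochondria challenged with calcium chloride; signal normalized to the plate average as 100%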
Each entry below carries its reported cytochrome c release ratio.
Lab note: record just the number, no unit beside it.

* c1ccc(CC2=NCCN2)cc1 | 1.14

Consider now this further molecule.
What cytochrome c release ratio value was documented for this molecule, CC(C)NCC(O)c1ccc(O)c(O)c1 (stereo unspecified) ?
0.68

----------
experiment: kinase inhibitors altering Pseudomonas killing of worms, whole organism (AID 651566);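 further: tested at 14 µM; sign flipped so higher z means a lower ratio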; conditions: C. elegans killed by P. aeruginosa, survival ratio
Categories are assigned from the measured z-score using these intervals: low band: < -0.4; middle band: ≥ -0.4 and < 0.1; high band: ≥ 0.1

Examples with answers:
- NC(=O)c1ccc2c(-c3ccnc(NCCCO)n3)c(-c3ccc(F)cc3)nn2c1: middle band
- O=C1NC(=O)C(c2cccc(Cl)c2)=C1Nc1ccc(O)c(Cl)c1: low band
- O=C(Nc1ccc(Oc2ccc3nc(NC(=O)c4ccccc4)[nH]c3c2)cc1)Nc1cc(C(F)(F)F)ccc1F: low band
- Nc1nccc(-c2c(-c3ccc(F)cc3)nn3cc(C(F)(F)F)ccc23)n1: low band
- COc1ccc2cc(-c3c(-c4ccncc4)nc(-c4ccc(S(C)=O)cc4C)n3C)ccc2c1 (centres undefined): high band

Categorize the following entry: Cc1ccc(C(=O)NC(C)C)cc1-c1ccc(C(=O)NCC2CC2)cc1
high band

Again, but for CN1CCC(C(=O)NC2NNC3NNC(c4ccccc4)CC32)CC1 (centres undefined)
low band

----------
experiment: kinase inhibitors against Plasmodium liver-stage infection, cell-based, known kinase inhibitor set, luminescence, hepatoma host viability (AID 624392); conditions: Plasmodium liver stage in hepatoma cells, luciferase luminescence, concentration not given here; measured here: host liver cell viability;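 further: infected cells incubated roughly two days before readout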
Listed here: items and their measured liver cell % of control.

Example cases with answers are listed next.
• O=C(O[C@H]1CN[C@H](C#Cc2cc3ncnc(Nc4ccc5c(cnn5Cc5ccccc5)c4)c3s2)C1)N1CCOCC1 = 118%
• NC(=O)CCc1ccccc1Oc1nccc(-c2c(-c3ccc(F)cc3)ncn2C2CCNCC2)n1 = 91.6%
• Fc1ccc(-c2nn3ncccc3c2-c2ccnc(Nc3ccc4c(c3)OCCO4)n2)cc1 = 90.5%
• CC(C)(O)Cn1c(=O)c(Oc2ccc(F)cc2F)cc2cnc(NC3CCOCC3)nc21 = 105%
• CC(=O)Nc1cccc(C#Cc2cncnc2Nc2ccc(OCc3cccc(F)c3)c(Cl)c2)n1 = 82.2%

Given the entry Cc1nnc(-c2ccc(C)c(-c3ccc(C(=O)Nc4cccc(C#N)c4)cc3)c2)o1 , report its measured liver cell % of control.
117%

Now try CC(Cn1ncnn1)Nc1ncc2cc(Oc3ccc(F)cc3F)c(=O)n(C)c2n1 (stereo not drawn) .
111%

One more molecule: O=C1NC(=O)C(c2cccc([N+](=O)[O-])c2)=C1Nc1cc(Cl)c(O)c(Cl)c1
108%

And then Cc1ccc(C(=O)NC2CC2)cc1-c1ccc2[nH]ncc2c1 , what is it?
103%

Same for N#Cc1cccc(C(=O)c2cnn(-c3ccc(F)cc3)c2N)c1
102%

Now consider Fc1ccc(Nc2nccc(-c3c(-c4ccc(C(F)(F)F)cc4)nn4ncccc34)n2)cc1F and answer again.
121%

And what about the molecule O=C1NC(=NCc2ccccc2Cl)SC1=Cc1ccc2ncccc2c1 ?
108%

Do the same for Nc1c(C(=O)c2cccc(CCC3(O)CCCC3)c2)cnn1-c1ccc(F)cc1 please
112%

What about this molecule? COc1cc2ncnc(Nc3ccc4c(cnn4Cc4ccccc4)c3)c2cc1OC
114%

Would you mind doing Oc1[nH]c2ccccc2c1C=Nc1ccc(-n2cncn2)cc1 as well?
80.6%

Queued: C[C@@H](Oc1cc(-n2cnc3ccc(OCC4CCN(C)CC4)cc32)sc1C(N)=O)c1ccccc1C(F)(F)F
80.7%

Nc1nc(-c2ccccn2)c(-c2ccc3ncccc3n2)s1 , same question.
94.7%

Repeat for the following molecule: CC(=O)Nc1ccc2c(C3=C(c4cn(C)c5ccccc45)C(=O)NC3=O)cn(C)c2c1
83.1%
